# Tested on: UACC-257 melanoma
# method-description: NCI tumour cell line growth inhibition, 48 h
Where a SMILES comes first, the peptide text is derived from it. The star is where a group is joined. Cbz = O=C(OCc1ccccc1)*; OBn = c1ccc(CO*)cc1
endpoint: TGI

Take a look at these entries with their results.
{"compound": "O=C(NCCCCCCNC(=O)c1cccc2ccccc12)c1cccc2ccccc12", "result": "> 100 µM"}
{"compound": "COc1cc2c(cc1OC)-c1[nH]c3ccc(C#N)cc3c1CC(=O)N2", "result": "> 100 µM"}
{"compound": "CCOC(=O)Cc1c[nH]c(=S)[nH]c1=O", "result": "> 100 µM"}

Consider the compound shown here: COc1cc2c(cc1OC)-c1ccc3cc4c(cc3c1N(CCN1CCCC1)C2)OCO4 What is its recorded TGI?
22.2 µM

Then c1ccc(Nc2nnc(CSc3nc(-c4ccccc4)c(-c4ccccc4)[nH]3)s2)cc1 ?
50 µM

Then COc1cc(/C=C/C(=O)c2sc(-n3nc(-c4ccccc4)cc3-c3ccccc3)nc2C)ccc1O ?
> 100 µM

Then COC(=O)CNC(=O)C(C)NC(=O)C(CC(=O)OCc1ccccc1)NC(=O)OCc1ccccc1 (stereo not drawn) (Cbz-Asp(OBn)-Ala-Gly-OMe; configuration not given here) ?
> 100 µM

Cited source: PubChem BioAssay (NCI)
